system: Zap-70 (Homo sapiens)
Construct: Kinases are expressed as either kinase domains or full length constructs; made in house
Sequence (P43403 whole entry, species assumed, the tested form may be a part): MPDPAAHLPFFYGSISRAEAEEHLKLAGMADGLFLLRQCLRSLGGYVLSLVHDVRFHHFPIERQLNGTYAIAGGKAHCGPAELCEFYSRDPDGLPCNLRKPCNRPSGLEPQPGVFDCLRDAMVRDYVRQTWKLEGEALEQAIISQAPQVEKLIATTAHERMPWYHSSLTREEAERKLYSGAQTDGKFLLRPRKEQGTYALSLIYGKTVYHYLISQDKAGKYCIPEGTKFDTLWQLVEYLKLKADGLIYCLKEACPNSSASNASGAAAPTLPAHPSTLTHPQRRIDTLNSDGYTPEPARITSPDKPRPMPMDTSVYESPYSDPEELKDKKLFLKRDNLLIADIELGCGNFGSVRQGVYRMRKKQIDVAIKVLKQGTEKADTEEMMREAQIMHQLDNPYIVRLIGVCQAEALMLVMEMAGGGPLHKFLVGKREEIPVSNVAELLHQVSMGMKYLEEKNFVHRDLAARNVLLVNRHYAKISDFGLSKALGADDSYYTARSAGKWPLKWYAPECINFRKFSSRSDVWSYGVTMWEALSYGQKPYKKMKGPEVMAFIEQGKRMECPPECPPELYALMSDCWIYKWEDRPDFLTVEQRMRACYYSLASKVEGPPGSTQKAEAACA
method.summary: Kinase inhibition assay (33P transfer), Zap-70
Format: biochemical
assay.setup: read-out: Zap-1
Quick list: IC50 per entry.

Some solved cases for reference:
{"compound": "O=C(O)Cc1ccc(Nc2ncnc(Nc3cc(-c4ccccc4)n[nH]3)n2)cc1", "IC50": "1.03 to 6.2 µM"}
{"compound": "COc1cc(Nc2ncnc(-n3c(NCc4ccc([N+](=O)[O-])cc4)nc4ccccc43)n2)cc(OC)c1OC", "IC50": "> 8.51 µM"}
{"compound": "CCC(Nc1nc2ccccc2n1-c1ncnc(Nc2cc(OC)c(OC)c(OC)c2)n1)c1ccccc1 (stereo not shown)", "IC50": "> 8.8 µM"}
{"compound": "COc1ccc(-c2cc(Nc3ncnc(Nc4ccc(CC(N)=O)cc4)n3)[nH]n2)cc1", "IC50": "> 10.8 µM"}
{"compound": "O=c1[nH]c2ccccc2n1-c1ncnc(Nc2ccc(Br)c(Cl)c2)n1", "IC50": "0.958 to 5.75 µM"}
{"compound": "COc1cc(Nc2ncnc(Nc3cc(OC)c(OC)c(OC)c3)n2)ccc1OCCN1CCOCC1", "IC50": "> 8.78 µM"}
{"compound": "COc1cc(Nc2ncnc(-n3c(NCc4ccc(Br)cc4)nc4ccccc43)n2)cc(OC)c1OC", "IC50": "> 8 µM"}
{"compound": "COc1cc(Nc2ncnc(N3CCCc4cc(C)ccc43)n2)cc(OC)c1OC", "IC50": "> 11 µM"}

query: Param item = `COc1cc(Nc2ncnc(-c3cccc4ccccc34)n2)cc(OC)c1OC` ; retrieve measured IC50.
result: > 11.6 µM

query: `Nc1nc2ccccc2n1-c1ncnc(Nc2cccc(CC(=O)O)c2)n1` ?
result: > 12.5 µM

query: `COc1cc(Nc2ncnc(-c3cccnc3Nc3cccc(C(N)=O)c3)n2)cc(OC)c1OC` ?
result: > 9.5 µM

query: `COc1cc(Nc2ncnc(Nc3cccc4ccccc34)n2)cc(OC)c1OCCN1CCOCC1` ?
result: > 8.95 µM

query: `COc1ccc(Nc2ncnc(Nc3cc(-c4ccccc4)n[nH]3)n2)cc1OC` ?
result: > 11.6 µM

query: `COc1cc(CNc2ncnc(N(C)c3cccc(Cl)c3)n2)cc(OC)c1OC` ?
result: > 10.8 µM

query: `O=c1[nH]c2ccccc2n1-c1ncnc(Nc2ccccn2)n1` ?
result: > 14.7 µM

query: `COc1cc(Nc2ncnc(N[C@H]3CCCc4ccccc43)n2)cc(OC)c1OC` ?
result: > 11 µM

query: `CC(C)(C)c1cc(Nc2ncnc(Cl)n2)[nH]n1` ?
result: > 17.8 µM

query: `COc1ccc(Nc2ncnc(N(C)c3cccc(Cl)c3)n2)cc1OC` ?
result: > 12.1 µM

query: `N#CCc1ccc(Nc2ncnc(Nc3ccc4c(cnn4Cc4ccccc4)c3)n2)cc1` ?
result: 5.55 to 8.09 µM

query: `COc1cc(Nc2ncnc(-n3c(NCCc4ccncc4)nc4ccccc43)n2)cc(OC)c1OC` ?
result: > 9.03 µM

query: `CN(c1cccc(Cl)c1)c1ncnc(Nc2cccc(Cc3nnn[nH]3)c2)n1` ?
result: 6.09 to 8.89 µM

====

Quick list: pIC50 per entry.
system: Lck (Homo sapiens, UniProt P06239)
Construct: Kinases are expressed as either kinase domains or full length constructs; made in house
Sequence (P06239 whole entry, species assumed, the tested form may be a part): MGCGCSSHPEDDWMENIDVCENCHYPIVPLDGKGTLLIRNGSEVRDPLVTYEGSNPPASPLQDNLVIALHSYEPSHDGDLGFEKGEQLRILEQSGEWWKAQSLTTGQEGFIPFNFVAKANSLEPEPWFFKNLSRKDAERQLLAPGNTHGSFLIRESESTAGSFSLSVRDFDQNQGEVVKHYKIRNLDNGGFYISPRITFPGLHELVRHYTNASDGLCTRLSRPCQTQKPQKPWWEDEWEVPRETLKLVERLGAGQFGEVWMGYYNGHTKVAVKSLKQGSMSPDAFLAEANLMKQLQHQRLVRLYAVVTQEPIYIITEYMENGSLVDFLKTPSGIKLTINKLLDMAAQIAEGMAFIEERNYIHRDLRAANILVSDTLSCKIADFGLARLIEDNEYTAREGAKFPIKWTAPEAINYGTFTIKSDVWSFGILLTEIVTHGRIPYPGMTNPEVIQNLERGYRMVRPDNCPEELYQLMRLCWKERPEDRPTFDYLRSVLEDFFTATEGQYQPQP
method.summary: Kinase inhibition assay (33P transfer), Lck
Format: biochemical
assay.setup: read-out: Lck-1
pIC50: −log10 of the molar value.

{"compound": "COc1ccc(Nc2ncccc2-c2ncnc(Nc3cc(OC)c(OC)c(OC)c3)n2)c(C)c1", "measurement.name": "pIC50", "recorded.result": "5.13 to 5.30"}
{"compound": "O=C(O)Cc1ccc(Nc2ncnc(Nc3cc(-c4ccco4)n[nH]3)n2)cc1", "measurement.name": "pIC50", "recorded.result": "5.20 to 5.97"}
{"compound": "COc1ccc(Nc2ncnc(NCC(O)c3ccccc3)n2)cc1OC (stereo not shown)", "measurement.name": "pIC50", "recorded.result": "5.02 to 5.18"}

Let's switch to this compound now.
query: Param item = `CCc1ccc(Nc2nc3ccccc3n2-c2ncnc(Nc3cc(OC)c(OC)c(OC)c3)n2)cc1` ; retrieve measured pIC50.
result: 5.32 to 6.09
